Tested on: southern root-knot nematode (Meloidogyne incognita)
Test: Meloidogyne incognita test
Format: in vivo
Conditions: 336 h, after 14 days, read-out: nematicidal activity (gall formation)
Description: Solvent: 125.0 parts by weight of acetone To produce a suitable preparation of active compound, 1 part by weight of active compound is mixed with the stated amount of solvent, and the concentrate is diluted with water to the desired concentration. […] After 14 days the nematicidal activity is determined on the basis of the percentage of gall formation. […]
Measured Property: pest or weed control at 20 ppm (%)
Report only the number, with the unit % understood.

Prompt: For the molecule shown here, CNc1nc([C@H](C)NC(=O)c2cc(OC(F)(F)F)cc(C3CC3)c2)n(-c2ncccn2)n1 , give the reported pest or weed control at 20 ppm.
Completion: 90

Prompt: For the molecule shown here, CC(NC(=O)c1cc(Cl)cc(Cl)c1)c1nc(-c2ncccn2)nn1-c1ncccn1 (centres unmarked) , give the reported pest or weed control at 20 ppm.
Completion: 90

Prompt: For the molecule shown here, CC(NC(=O)c1cc(Cl)cc(C(F)(F)F)c1)c1nc(C(=O)NC2CC2)nn1-c1ncccn1 (single isomer, unassigned) , give the reported pest or weed control at 20 ppm.
Completion: 90

Prompt: For the molecule shown here, C[C@H](NC(=O)c1cc(Br)cc(OC(F)(F)F)c1)c1nc(N2CCOCC2)nn1-c1ncccn1 , give the reported pest or weed control at 20 ppm.
Completion: 100

Prompt: For the molecule shown here, CC(NC(=O)c1cc(Cl)cc(S(C)(=O)=O)c1)c1nc([S+]([O-])CC(F)(F)F)nn1-c1ccc(Cl)cn1 (centres unmarked) , give the reported pest or weed control at 20 ppm.
Completion: 90

Prompt: For the molecule shown here, C[C@H](NC(=O)c1cc(C(F)(F)F)cc(C(F)(F)F)c1)c1nc(N2CCOCC2)nn1-c1ncccn1 , give the reported pest or weed control at 20 ppm.
Completion: 100

Prompt: For the molecule shown here, CC(NC(=O)c1cc(Cl)cc(OC(F)(F)F)c1)c1nc(-c2ncccn2)nn1-c1ncccn1 (centres unmarked) , give the reported pest or weed control at 20 ppm.
Completion: 100

Prompt: For the molecule shown here, CC(NC(=O)c1cc(Cl)cc(C(F)(F)F)c1)c1nc(C(=O)NC2CC2)nn1-c1ccc(C#N)cn1 (centres unmarked) , give the reported pest or weed control at 20 ppm.
Completion: 90

Prompt: For the molecule shown here, CC(NC(=O)c1cc(Cl)cc(C(F)(F)F)c1)c1nc(-c2ncccn2)nn1-c1ncccn1 (centres unmarked) , give the reported pest or weed control at 20 ppm.
Completion: 90

Prompt: For the molecule shown here, C[C@H](NC(=O)c1cc(Br)cc(Br)c1)c1nc(N2CCOCC2)nn1-c1ncccn1 , give the reported pest or weed control at 20 ppm.
Completion: 90

Prompt: For the molecule shown here, C=CC(=O)Nc1nc(C(C)NC(=O)c2cc(Cl)cc(C(F)(F)F)c2)n(-c2ccc(Cl)cn2)n1 (centres unmarked) , give the reported pest or weed control at 20 ppm.
Completion: 90

###

System: adult brown dog ticks (Rhipicephalus sanguineus)
Experiment: Rhipicephalus sanguineus in-vitro contact test with adult brown dog ticks
Type: in vivo
Conditions: 1 μg/cm^2 (=100 g/ha), after 48 hours, read-out: efficacy (ticks dead or moribund)
Measured Property: pest or weed control at 1 µg/cm2, 100 g/ha (%)
Report only the number, with the unit % understood.

Use the examples below as a reference point.
>>> endpoint_value("CNc1nc([C@H](C)NC(=O)c2cc(Cl)cc(OC(F)(F)F)c2)n(-c2ncccn2)n1 [I-129]")
80
>>> endpoint_value("CNc1nc(C(C)NC(=O)c2cc(Br)cc(Br)c2)n(-c2ncccn2)n1 (centres unmarked) [I-100]")
100
>>> endpoint_value("CNc1nc([C@H](C)NC(=O)c2cc(OC(F)(F)F)cc(C3CC3)c2)n(-c2ncccn2)n1 [I-132]")
100
>>> endpoint_value("CNc1nc([C@H](C)NC(=O)c2cc(Br)cc(C(F)(F)F)c2)n(-c2ncccn2)n1 [I-136]")
100
>>> endpoint_value("CNc1nc([C@H](C)NC(=O)c2cc(C(F)(F)F)cc(C(F)(F)F)c2)n(-c2ncccn2)n1 [I-127]")
100

Prompt: Write down the reported pest or weed control at 1 µg/cm2, 100 g/ha of CC(NC(=O)c1cc(Br)cc(C(F)(F)F)c1)c1nc(N)nn1-c1ncccn1 (centres unmarked) [I-093] , test system: adult brown dog ticks (Rhipicephalus sanguineus).
Completion: 80

Prompt: Write down the reported pest or weed control at 1 µg/cm2, 100 g/ha of CNc1nc([C@H](C)NC(=O)c2cc(Br)cc(OC(F)(F)F)c2)n(-c2ncccn2)n1 [I-130] , test system: adult brown dog ticks (Rhipicephalus sanguineus).
Completion: 100

Prompt: Write down the reported pest or weed control at 1 µg/cm2, 100 g/ha of CC(NC(=O)c1cc(C(F)(F)F)cc(C(F)(F)F)c1)c1nc(N)nn1-c1ccc(C(=O)N2CCOCC2)cn1 (centres unmarked) [I-115] , test system: adult brown dog ticks (Rhipicephalus sanguineus).
Completion: 100

###

Tested on: fall armyworm larvae (Spodoptera frugiperda)
Assay: Spodoptera frugiperda spray test (maize leaf sections)
Assay type: in vivo
Conditions: 168 h
Listing of entries alongside the reported mortality at 100 g/ha.
Report only the number, with the unit % understood.

Use the examples below as a reference point.
>>> endpoint_value("C[C@H](NC(=O)c1cc(OC(F)(F)F)cc(C2CC2)c1)c1nc(N2CCCC2)nn1-c1ncccn1 [I-203]")
100
>>> endpoint_value("C[C@H](NC(=O)c1cc(Cl)cc(S(C)(=O)=O)c1)c1nc(N)nn1-c1ccc(C#N)cn1 [I-148]")
100

Now look at this one.
Prompt: For the compound shown here, C[C@H](NC(=O)c1cc(C(F)(F)F)cc(C(F)(F)F)c1)c1nc(N2CCCC2)nn1-c1ncccn1 [I-190] , give the reported mortality at 100 g/ha.
Completion: 100

###

System: green peach aphid (Myzus persicae)
Assay: Myzus persicae oral test
Assay type: in vivo
Conditions: 120 h
Listing of entries alongside the reported mortality at 4 ppm.
Report only the number, with the unit % understood.

Use the examples below as a reference point.
>>> endpoint_value("CC(NC(=O)c1cncc(C(F)(F)F)c1)c1nc(-c2ncccn2)nn1-c1ncccn1 (stereo not shown)")
90
>>> endpoint_value("CC(NC(=O)c1cc(Br)cc(OC(F)(F)F)c1)c1nc(N)nn1-c1ncccn1 (stereo not shown)")
100
>>> endpoint_value("CC(NC(=O)c1cc(Cl)cc(OC(F)(F)F)c1)c1nc(-c2ncccn2)nn1-c1ncccn1 (stereo not shown)")
100
>>> endpoint_value("CNC(=O)c1nc(C(C)NC(=O)c2cc(Cl)cc(C(F)(F)F)c2)n(-c2ncccn2)n1 (stereo not shown)")
100
>>> endpoint_value("CC(NC(=O)c1cc(Cl)cc(C(F)(F)F)c1)c1nc(NC(=O)[C@@H]2C[C@@H]2F)nn1-c1ncccn1 (stereo partly shown)")
100
>>> endpoint_value("CC(NC(=O)c1cc(Cl)cc(C(F)(F)F)c1)c1nc(C(=O)NC2CC2)nn1-c1ccc(C#N)cn1 (stereo not shown)")
90
>>> endpoint_value("CC(=O)Nc1nc(C(C)NC(=O)c2cc(Cl)cc(S(C)(=O)=O)c2)n(-c2ccc(Cl)cn2)n1 (stereo not shown)")
100
>>> endpoint_value("CC(NC(=O)c1cc(C(F)(F)F)cc(C(F)(F)F)c1)c1nc(N)nn1-c1ncccn1 (stereo not shown)")
100

Prompt: For the compound shown here, CC(NC(=O)c1cc(Cl)cc(C(F)(F)F)c1)c1nc(C(=O)NC2CC2)nn1-c1ncccn1 (single isomer, unassigned) , give the reported mortality at 4 ppm.
Completion: 100

Prompt: For the compound shown here, CC(NC(=O)c1cc(Cl)cc(Br)c1)c1nc(N)nn1-c1ncccn1 (stereo not shown) , give the reported mortality at 4 ppm.
Completion: 100

Prompt: For the compound shown here, CC(NC(=O)c1cc(Cl)cc(S(C)(=O)=O)c1)c1nc(CS(C)(=O)=O)nn1-c1ccc(Cl)cn1 (stereo not shown) , give the reported mortality at 4 ppm.
Completion: 100

Prompt: For the compound shown here, CC(NC(=O)c1cc(Cl)cc(S(C)(=O)=O)c1)c1nc(NC(=O)C2(Cl)CC2)nn1-c1ncccn1 (stereo not shown) , give the reported mortality at 4 ppm.
Completion: 90

Prompt: For the compound shown here, CC(NC(=O)c1cc(OC(F)(F)F)cc(C2CC2)c1)c1nc(N)nn1-c1ncccn1 (stereo not shown) , give the reported mortality at 4 ppm.
Completion: 100

Prompt: For the compound shown here, CC(NC(=O)c1cc(Cl)cc(C(F)(F)F)c1)c1nc(N)nn1-c1ccc(Cl)cn1 (racemic) , give the reported mortality at 4 ppm.
Completion: 100

Prompt: For the compound shown here, CC(NC(=O)c1cc(Cl)cc(S(C)(=O)=O)c1)c1nc(NC(=O)C2(Cl)CC2)nn1-c1ccc(Cl)cn1 (stereo not shown) , give the reported mortality at 4 ppm.
Completion: 100

Prompt: For the compound shown here, CC(NC(=O)c1cc(Cl)cc(C(F)(F)F)c1)c1nc(NC(=O)C2(Cl)CC2)nn1-c1ncccn1 (stereo not shown) , give the reported mortality at 4 ppm.
Completion: 100

Prompt: For the compound shown here, CC(NC(=O)c1cc(Cl)cc(OC(F)(F)F)c1)c1nc(N)nn1-c1ccc(C#N)cn1 (stereo not shown) , give the reported mortality at 4 ppm.
Completion: 100

Prompt: For the compound shown here, CC(NC(=O)c1cc(Cl)cc(C(F)(F)F)c1)c1nc(NC(=O)C2CC2)nn1-c1ncccn1 (stereo not shown) , give the reported mortality at 4 ppm.
Completion: 100

Prompt: For the compound shown here, CC(NC(=O)c1cc(Br)cc(C(F)(F)F)c1)c1nc(N)nn1-c1ncccn1 (stereo not shown) , give the reported mortality at 4 ppm.
Completion: 100

The origin of these recorded values is patent US20230028441A1.
